- System: CHIKV
- method: CHIKV plaque assay in HEK 293 cells
- applied conditions: Chikungunya virus, HEK293, read-out: EC50, CHIKV inhibition
Recorded measurements of EC50, one per entry

>>> value_reported("O=c1oc2ccccc2c(O)c1C(c1cccc(Cl)c1)c1c(O)c2ccccc2oc1=O")
"3.08 µM"

Proceed to the following item.
Which EC50 value belongs to "O=c1oc2ccccc2c(O)c1C(c1ccc(Cl)cc1)c1c(O)c2ccccc2oc1=O" ?
4.65 µM

---

- method: Cytotoxicity by MTS assay in HEK 293 cells
- applied conditions: human
outcome measure: CC50 at 2 days (µM)
Expressed in µM, but write only the number.

Report CC50 at 2 days for "O=c1oc2ccccc2c(O)c1C(c1ccc(Cl)cc1)c1c(O)c2ccccc2oc1=O" please.
44.4

All figures here come from paper PMC12305873.
